target: human MC4R (Homo sapiens, UniProt P32245)
Construct: expressed in transfected cells; host or cells: HEK293/MC4R/CRE-GFP
Sequence (P32245 whole entry): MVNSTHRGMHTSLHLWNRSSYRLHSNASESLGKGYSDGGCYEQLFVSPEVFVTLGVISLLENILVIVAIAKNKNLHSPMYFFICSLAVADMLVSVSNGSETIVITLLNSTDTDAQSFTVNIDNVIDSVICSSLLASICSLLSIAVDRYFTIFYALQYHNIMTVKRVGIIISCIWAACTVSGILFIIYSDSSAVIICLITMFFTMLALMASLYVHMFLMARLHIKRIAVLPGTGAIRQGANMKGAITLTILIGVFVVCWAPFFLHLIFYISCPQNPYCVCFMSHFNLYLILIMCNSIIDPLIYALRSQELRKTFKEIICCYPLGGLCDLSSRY
experiment: cAMP accumulation assay (HTRF), antagonist activity at MC4R
Format: cell-based
stated conditions: dose-response fit, MC4R
Positions of bridges follow the written chain, without caps; N, C: chain ends. Non-standard residues stand in square brackets, D forms with d. No end group written: not given here. d2Nal = N[C@H](Cc1ccc2ccccc2c1)C(=O)O; Nle = CCCC[C@H](N)C(=O)O
Class (required): determined from Hill Coefficient; valid ranges are group A (below 0.4), group B (0.4 to below 2), group C (2 or more)

{"substance": "Leu-c(Asp-Pro-Trp-Arg-Trp-Lys)-Val-Pro (LDPWRWKVP; lactam 2-7) [Peptide C3]", "label": "group B"}
{"substance": "IDPWRWKVP [Peptide C8]", "label": "group C"}
{"substance": "VDPFFRWKVP [Peptide B9]", "label": "group A"}
{"substance": "Ac-Nle-c(Asp-His-Dnal(2′)-Arg-Trp-Pro-Lys)-Dval-Dpro-NH2 (Ac-[Nle]DH[d2Nal]RWPK[dV][dP]-NH2; lactam 2-8; SMILES CCCC[C@H](NC(C)=O)C(=O)N[C@H]1CC(=O)NCCCC[C@@H](C(=O)N[C@@H](C(=O)N2CCC[C@@H]2C(N)=O)C(C)C)NC(=O)[C@@H]2CCCN2C(=O)[C@H](Cc2c[nH]c3ccccc23)NC(=O)[C@H](CCCNC(=N)N)NC(=O)[C@@H](Cc2ccc3ccccc3c2)NC(=O)[C@H](Cc2c[nH]cn2)NC1=O) [Peptide D2]", "label": "group B"}
{"substance": "VPFFRWVP [Peptide B6]", "label": "group A"}
{"substance": "IPFFRWVP [Peptide B5]", "label": "group B"}
{"substance": "Ac-Nle-c(Asp-Pro-Trp-Arg-Trp-Lys)-Dval-Dpro-NH2 (Ac-[Nle]DPWRWK[dV][dP]-NH2; lactam 2-7; SMILES CCCC[C@H](NC(C)=O)C(=O)N[C@H]1CC(=O)NCCCC[C@@H](C(=O)N[C@@H](C(=O)N2CCC[C@@H]2C(N)=O)C(C)C)NC(=O)[C@H](Cc2c[nH]c3ccccc23)NC(=O)[C@H](CCCNC(=N)N)NC(=O)[C@H](Cc2c[nH]c3ccccc23)NC(=O)[C@@H]2CCCN2C1=O) [Peptide C1]", "label": "group A"}
{"substance": "Leu-c(Asp-Pro-Phe-Phe-Arg-Trp-Lys)-Val-Pro (LDPFFRWKVP; lactam 2-8) [Peptide B3]", "label": "group C"}
{"substance": "IPWRWVP [Peptide C5]", "label": "group B"}
{"substance": "LDPFFRWKVP [Peptide B7]", "label": "group A"}
{"substance": "LDPWRWKVP [Peptide C7]", "label": "group B"}
{"substance": "Ac-Nle-c(Asp-Pro-Phe-Phe-Arg-Trp-Lys)-Dval-Dpro-NH2 (Ac-[Nle]DPFFRWK[dV][dP]-NH2; lactam 2-8; SMILES CCCC[C@H](NC(C)=O)C(=O)N[C@H]1CC(=O)NCCCC[C@@H](C(=O)N[C@@H](C(=O)N2CCC[C@@H]2C(N)=O)C(C)C)NC(=O)[C@H](Cc2c[nH]c3ccccc23)NC(=O)[C@H](CCCNC(=N)N)NC(=O)[C@H](Cc2ccccc2)NC(=O)[C@H](Cc2ccccc2)NC(=O)[C@@H]2CCCN2C1=O) [Peptide B1]", "label": "group C"}
{"substance": "IDPFFRWKVP [Peptide B8]", "label": "group B"}
{"substance": "VPWRWVP [Peptide C6]", "label": "group C"}
